B1: library; numbered along this chain (parent)
chain: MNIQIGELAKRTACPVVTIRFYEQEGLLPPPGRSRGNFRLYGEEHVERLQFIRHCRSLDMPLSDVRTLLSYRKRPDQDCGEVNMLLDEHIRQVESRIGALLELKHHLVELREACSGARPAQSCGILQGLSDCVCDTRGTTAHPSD

variants of: B1; assay: sfGFP reporter fluorescence (15 h) (µM FITC); higher = stronger transcriptional activation; settings: library round: Round 0; ligand: 1 µM Pb
Form field: sfGFP reporter fluorescence (one value per entry).

{"mutation name": "M60V", "sfGFP reporter fluorescence": 0.146}
{"mutation name": "H89L", "sfGFP reporter fluorescence": 0.0553}
{"mutation name": "Y22I", "sfGFP reporter fluorescence": 0.0583}
{"mutation name": "E81A", "sfGFP reporter fluorescence": 0.0792}
{"mutation name": "P61N", "sfGFP reporter fluorescence": 0.13}
{"mutation name": "L129Q", "sfGFP reporter fluorescence": 0.0574}
{"mutation name": "C134N", "sfGFP reporter fluorescence": 0.081}
{"mutation name": "G138A", "sfGFP reporter fluorescence": 0.0724}
{"mutation name": "D64L", "sfGFP reporter fluorescence": 3.29}
{"mutation name": "I125L", "sfGFP reporter fluorescence": 0.0572}
{"mutation name": "L62D", "sfGFP reporter fluorescence": 0.0629}
{"mutation name": "E88A", "sfGFP reporter fluorescence": 0.0859}
{"mutation name": "L28F", "sfGFP reporter fluorescence": 0.0784}
{"mutation name": "L27F", "sfGFP reporter fluorescence": 0.104}
{"mutation name": "L28V", "sfGFP reporter fluorescence": 0.0819}
{"mutation name": "I3C", "sfGFP reporter fluorescence": 0.0737}
{"mutation name": "I125K", "sfGFP reporter fluorescence": 0.0586}
{"mutation name": "N83W", "sfGFP reporter fluorescence": 0.0748}
{"mutation name": "E7A", "sfGFP reporter fluorescence": 0.0671}
{"mutation name": "H89V", "sfGFP reporter fluorescence": 0.0575}
{"mutation name": "G6R", "sfGFP reporter fluorescence": 0.0632}
{"mutation name": "E43G", "sfGFP reporter fluorescence": 0.0883}
{"mutation name": "V46Q", "sfGFP reporter fluorescence": 0.0858}
{"mutation name": "R111N", "sfGFP reporter fluorescence": 0.0684}
{"mutation name": "V82A", "sfGFP reporter fluorescence": 0.057}
{"mutation name": "M60L K104V G128I", "sfGFP reporter fluorescence": 1.27}
{"mutation name": "G124A", "sfGFP reporter fluorescence": 0.064}
{"mutation name": "Y41N", "sfGFP reporter fluorescence": 0.0601}
{"mutation name": "C55M", "sfGFP reporter fluorescence": 0.0733}
{"mutation name": "E43K", "sfGFP reporter fluorescence": 0.109}
{"mutation name": "L68N", "sfGFP reporter fluorescence": 0.0599}
{"mutation name": "C55S", "sfGFP reporter fluorescence": 0.066}
{"mutation name": "L27M", "sfGFP reporter fluorescence": 0.0971}
{"mutation name": "G36M", "sfGFP reporter fluorescence": 0.0667}
{"mutation name": "M60L K104V L107C", "sfGFP reporter fluorescence": 3.04}
{"mutation name": "E43L", "sfGFP reporter fluorescence": 0.0713}
{"mutation name": "I97H", "sfGFP reporter fluorescence": 0.0596}
{"mutation name": "L28S", "sfGFP reporter fluorescence": 0.0632}
{"mutation name": "D135Q", "sfGFP reporter fluorescence": 0.0826}
{"mutation name": "V46F", "sfGFP reporter fluorescence": 0.0814}
{"mutation name": "E94A", "sfGFP reporter fluorescence": 0.0867}
{"mutation name": "P15H", "sfGFP reporter fluorescence": 0.092}
{"mutation name": "D64Q", "sfGFP reporter fluorescence": 0.0808}
{"mutation name": "I90Y", "sfGFP reporter fluorescence": 0.108}
{"mutation name": "P15G", "sfGFP reporter fluorescence": 0.085}
{"mutation name": "L110R", "sfGFP reporter fluorescence": 0.0596}
{"mutation name": "D64R", "sfGFP reporter fluorescence": 0.112}
{"mutation name": "H54A", "sfGFP reporter fluorescence": 0.0552}
{"mutation name": "K104N", "sfGFP reporter fluorescence": 0.0823}
{"mutation name": "I3A", "sfGFP reporter fluorescence": 0.0594}
{"mutation name": "M60F", "sfGFP reporter fluorescence": 2.94}
{"mutation name": "D64G", "sfGFP reporter fluorescence": 0.121}
{"mutation name": "D59A", "sfGFP reporter fluorescence": 0.0755}
{"mutation name": "L107W", "sfGFP reporter fluorescence": 0.0638}
{"mutation name": "L110H", "sfGFP reporter fluorescence": 0.081}
{"mutation name": "I97F", "sfGFP reporter fluorescence": 0.0592}
{"mutation name": "C134W", "sfGFP reporter fluorescence": 0.469}
{"mutation name": "Y41V", "sfGFP reporter fluorescence": 0.0597}
{"mutation name": "E109P", "sfGFP reporter fluorescence": 0.155}
{"mutation name": "V82D", "sfGFP reporter fluorescence": 0.0597}
{"mutation name": "L107I", "sfGFP reporter fluorescence": 0.0671}
{"mutation name": "C123V", "sfGFP reporter fluorescence": 0.0579}
{"mutation name": "C114I", "sfGFP reporter fluorescence": 0.0942}
{"mutation name": "Y22M", "sfGFP reporter fluorescence": 0.0612}
{"mutation name": "P15Q", "sfGFP reporter fluorescence": 0.0903}
{"mutation name": "S63A", "sfGFP reporter fluorescence": 0.0733}
{"mutation name": "L110N", "sfGFP reporter fluorescence": 0.0579}
{"mutation name": "V108T", "sfGFP reporter fluorescence": 0.0724}
{"mutation name": "N83D", "sfGFP reporter fluorescence": 0.0607}
{"mutation name": "P143H", "sfGFP reporter fluorescence": 0.0786}
{"mutation name": "R33I", "sfGFP reporter fluorescence": 0.0566}
{"mutation name": "I90K", "sfGFP reporter fluorescence": 0.099}
{"mutation name": "C134E", "sfGFP reporter fluorescence": 0.0651}
{"mutation name": "L27G", "sfGFP reporter fluorescence": 0.0597}
{"mutation name": "C114S", "sfGFP reporter fluorescence": 0.0581}
{"mutation name": "F21E", "sfGFP reporter fluorescence": 0.0618}
{"mutation name": "L58I", "sfGFP reporter fluorescence": 0.0546}
{"mutation name": "C123S", "sfGFP reporter fluorescence": 0.0575}
{"mutation name": "V16I", "sfGFP reporter fluorescence": 0.0768}
{"mutation name": "C79M", "sfGFP reporter fluorescence": 0.0612}
{"mutation name": "M60L P61N D64K L107C", "sfGFP reporter fluorescence": 4.3}
{"mutation name": "L68D", "sfGFP reporter fluorescence": 0.061}
{"mutation name": "L62H", "sfGFP reporter fluorescence": 0.0638}
{"mutation name": "K104V L107C", "sfGFP reporter fluorescence": 1.13}
{"mutation name": "L129M", "sfGFP reporter fluorescence": 0.059}
{"mutation name": "R20N", "sfGFP reporter fluorescence": 0.0674}
{"mutation name": "P143T", "sfGFP reporter fluorescence": 0.0713}
{"mutation name": "E109M", "sfGFP reporter fluorescence": 0.0806}
{"mutation name": "R72A", "sfGFP reporter fluorescence": 0.0687}
{"mutation name": "C79D", "sfGFP reporter fluorescence": 0.059}
{"mutation name": "Y22Q", "sfGFP reporter fluorescence": 0.0612}
